Assign survival to each entry below.
system: DeltatarO mutant; assay: S. aureus survival, RN4220 and DeltatarO strains – OD600, teichoic acid synthesis inhibitors, primary screen (AID 463173); conditions: S. aureus RN4220 wild type/DeltatarO growth, OD600, 18 h, active compounds read low, screened at 18.75 µg/mL (by protocol)
In all, about 52,000 compounds went through this assay and about 4,300 (8.3%) were called active. Shown is part of a subset that was picked to be rich in actives.
Give bare numbers, in %.

compound	experimental_system	readout_label	value_measured
O=c1c2sc3ccccc3c2n(Cc2cccc(C(F)(F)F)c2)c(=O)n1Cc1ccccc1	DeltatarO mutant	survival	67
Cc1ccc(-c2csc(NC3OC(=O)c4c#cccc43)n2)cc1 (stereo not given)	DeltatarO mutant	survival	94
CCCCCOC(=O)CSc1nc2sc3c(c2c(=O)n1Cc1ccccc1)CC(C)(C)OC3	DeltatarO mutant	survival	41

Value sought for every listed compound: survival.
1. COc1ccc(S(=O)(=O)c2c(Nc3ccccc3F)sc(C(=O)c3cccc(OC)c3)c2N)cc1
2. CCOC(=O)CSc1nc2sc3c(c2c(=O)n1Cc1ccccc1)CC(C)CC3 (stereo not given)
3. Cc1ccc(C)c(Cn2c(=O)n(CCCC(=O)NCc3ccc4c(c3)OCO4)c(=O)c3sccc32)c1
4. COC(=O)CSc1nc2sc3c(c2c(=O)n1-c1ccccc1C)CC(C)(C)OC3
5. COc1ccc(CNC(=O)C(=O)NCC(c2ccco2)S(=O)(=O)c2cccs2)cc1 (stereo not given)
6. CCCCCOC(=O)CSc1nc2sc3c(c2c(=O)n1Cc1ccccc1)CC(C)(CC)OC3 (stereo not given)
7. CCC1(C)Cc2c(sc3nc(SC)n(-c4ccc(C)cc4)c(=O)c23)CO1 (stereo not given)

Out:
1: 97; 2: 64; 3: 74; 4: 73; 5: 60; 6: 46; 7: 33

Your task in this section: give survival for each listed record.
1. C/C(=N\NC(=O)CNc1ccccc1)c1ccccc1
2. CCOC(=O)c1ccc(NC(=O)Nc2cc3c(cc2N2CCCCC2)n(CC)c(=O)n3CC)cc1
3. Cc1ccc(-n2c(SCCC(C)C)nc3sc4c(c3c2=O)CC(C)(C)OC4)cc1
4. CC(C(=O)NCc1ccco1)N1CCN(C)CC1 (stereo not given)
5. Cc1ccc(NC(=O)CN2C(=O)CCSc3ccc(S(=O)(=O)N4CCCC4)cc32)cc1
6. CCOC(=O)c1c(C)n(CCNC(C)=O)c2cc(Br)c(OC)cc12

Out:
[85, 57, 49, 95, 86, 106]

Please go through the list and note survival for each compound.
1. COC(=O)CSc1nc2sc3c(c2c(=O)n1-c1ccc(C)cc1)CC(C(C)C)OC3 (stereo not given)
2. CCOC(=O)c1ccc(N2CCN(c3ccc(F)cc3)CC2)c(NC(=O)Nc2cccc(OC)c2)c1
3. CCCCCOC(=O)CSc1nc2sc3c(c2c(=O)n1-c1ccccc1)CC(C)(CC)OC3 (stereo not given)
4. CCOC(=O)CSc1nc2sc3c(c2c(=O)n1Cc1ccccc1)CCC(C(C)(C)C)C3 (stereo not given)

Out:
1: 61; 2: 70; 3: 36; 4: 61

----------
Consider the following molecules; for each one, report its survival.
test system: DeltatarO mutant; experiment: S. aureus survival, RN4220 and DeltatarO strains – OD600, teichoic acid synthesis inhibitors, primary screen (AID 463173); settings: S. aureus RN4220 wild type/DeltatarO growth, OD600, 18 h, active compounds read low, screened at 18.75 µg/mL (by protocol)
Among all 52,000 compounds or so, about 4,300 (8.3%) were called active. The entries come from a sample that favours actives as a whole.
Give bare numbers, in %.

molecule	unit_of_measure	survival
CCc1ccc2nc(SCC(=O)N3CC(=O)Nc4ccccc43)c(C#N)cc2c1	%	107

// input: 2 molecules below; output: survival for each
1. Fc1ccc(C(NCCc2ccc(Cl)cc2)c2nnc(-c3ccccc3)o2)c(Cl)c1 (stereo not given)
2. Fc1ccccc1C(NCCc1ccc(Cl)cc1)c1nnc(-c2ccccc2)o1 (stereo not given)

Out:
1. -2
2. -9

Batch lookup, survival per entry.
1. Cc1cc(C)cc(NC(c2nnc(-c3cccc(F)c3)o2)c2ccc(F)cc2Cl)c1 (stereo not given)
2. CCn1cc2nc(SCc3cccc(Cl)c3)n(Cc3ccc(C)cc3)c(=O)c2n1
3. CC(C)c1ccc(CNC(=O)c2ccc(N3CCCC3)c(NC(=O)NCc3ccc(F)cc3)c2)cc1
4. Cc1cc(C)cc(NC(c2cccc(Cl)c2)c2nnc(-c3ccccc3)o2)c1 (stereo not given)

Out:
1. 48
2. 44
3. 47
4. 92

----------
test system: DeltatarO mutant; test: S. aureus survival, RN4220 and DeltatarO strains – OD600, teichoic acid synthesis inhibitors, primary screen (AID 463173); conditions: S. aureus RN4220 wild type/DeltatarO growth, OD600, 18 h, active compounds read low, screened at 18.75 µg/mL (by protocol)
In all, about 52,000 compounds went through this assay and about 4,300 (8.3%) were called active. This is one part of a sample in which actives are shown more often than they occur.
Field: survival. Provide a value for each of the molecules that follow.
One number for each entry, in %.

Value sought for every listed molecule: survival.
1. CCOc1ccccc1NC(=O)N(Cc1ccc(C)o1)C1CCN(C(C)=O)CC1
2. O=C(CSc1ncc(-c2ccccc2)[nH]1)Nc1ccccc1

Out:
[101, 64]

Hi! Can you tell me survival for each of these molecules?
1. CCn1c(=O)cc(OCC(=O)N2CCN(c3ccc(OC)cc3)CC2)c2ccccc21
2. O=C(Nc1nnc(S(=O)(=O)N2CCCCCC2)s1)c1ccccc1Br
3. CCOc1ccc(NC(=O)CSc2nnc(-c3ccc(C)cc3)c(-c3ccc(C)cc3)n2)cc1
4. CCN(Cc1nc(-c2cccc(C)c2)no1)S(=O)(=O)c1ccc(C)cc1
5. Cc1ccc(-c2noc(CN(C3CCCCC3)S(=O)(=O)c3ccc(F)cc3)n2)cc1
6. Cc1ccc(CNC(=O)CSc2nc(=O)[nH]c3c2CCCC3)cc1
7. COc1ccc(NC(=O)CSc2oc(-c3cccs3)nc2S(=O)(=O)c2ccc(Br)cc2)c(OC)c1
8. COc1cc(-c2nnc(SCC(=O)Nc3cccc(C#N)c3)o2)cc(OC)c1OC

Out:
[71, 43, 115, 43, 78, 76, 57, 110]

Give one value of survival per listed molecule.
1. COC(=O)c1ccc(Cl)cc1NC(=O)N(Cc1ccc(C)o1)C1CCN(C(C)=O)CC1
2. CN1CCC(OC(=O)c2ccc(Cl)cc2Cl)CC1
3. Cc1ccc(S(=O)(=O)NCc2nc(-c3cccc(C)c3)no2)cc1
4. Cc1cc(C)c(S(=O)(=O)NCC(c2ccco2)N2CCOCC2)c(C)c1 (stereo not drawn)

Out:
95
101
100
89

Please give survival, item by item, for the list that follows.
1. Cc1cccc(NC(=O)CSc2nnc(-c3cccs3)o2)c1
2. COc1ccc(NC(=O)CSc2ncc(-c3ccc(Cl)cc3)[nH]2)cc1OC
3. Cc1ccccc1NC(=O)CCn1nc(-c2ccc(Cl)cc2)c2ccccc2c1=O
4. COc1ccc(S(=O)(=O)N(Cc2nc(-c3cccc(C)c3)no2)C2CCCCC2)cc1

Out:
1: 50; 2: 78; 3: 95; 4: 57

Hi, could you look up survival for each item in my list?
1. CC(C)c1ccccc1NC(=O)c1cccs1
2. CCOc1ccc(-c2nnc(SCC(=O)Nc3cccc(OC)c3)nc2-c2ccc(OCC)cc2)cc1
3. O=C(CSc1ncc(-c2ccccc2)[nH]1)Nc1ccc(Cl)cc1
4. Cc1cccc(-c2noc(CN(C3CCCCC3)S(=O)(=O)c3ccc(F)cc3)n2)c1
5. O=C(CSc1nnc(-c2cccs2)o1)Nc1cccc(C(F)(F)F)c1
6. Cc1ccc(Cl)cc1NC(=O)c1oc2ccc(S(=O)(=O)N3CCCCCC3)cc2c1C
7. O=S(=O)(c1ccc(F)cc1)N(Cc1nc(-c2ccc(Cl)cc2)no1)C1CCCCC1
8. Cc1cccc(C)c1NC(=O)CSc1nc2ncccc2o1

Out:
1. 61
2. 0
3. 36
4. 71
5. 47
6. 93
7. 76
8. 79

State recorded survival for all listed molecules.
1. CCN1CCC(N(Cc2ccc(F)cc2)C(=O)Nc2cc(Cl)ccc2C(=O)OC)CC1
2. Cc1cccc(Nc2c(-c3ccsc3)nc3nc(C)cc(C)n23)c1
3. O=C(CSc1nc2ncccc2o1)Nc1ccc(Cl)cc1F
4. Cc1ccc(NC(=O)CSc2nc(=O)n(Cc3ccncc3)c3c2CCC3)cc1Cl
5. CCc1ccc(S(=O)(=O)c2cn(C)c3cc(OC)c(OC)cc3c2=O)cc1
6. CC(C)CCn1nnnc1CN1CCN(Cc2ccc3c(c2)OCO3)CC1
7. Cc1ccc(NC(=O)Cn2ncn3c(cc4ccccc43)c2=O)c(C)c1
8. COc1ccc(-c2nnc(SCC(=O)Nc3cccc(C(F)(F)F)c3)nc2-c2ccc(OC)cc2)cc1

Out:
85
130
70
80
121
69
45
87

Please state survival for every molecule in the list that follows.
1. COc1ccc(S(=O)(=O)N(C)Cc2nc(-c3cccc(C)c3)no2)cc1
2. CCN(C(=O)CCS(=O)(=O)c1cccc2nsnc12)c1cccc(C)c1

Out:
1: 51; 2: 74

Each molecule below has a reported value. Please supply its survival.
1. COc1ccccc1NC(=O)CCn1nc(-c2ccccc2)c2ccccc2c1=O
2. CCOc1cccc(NC(=O)CSc2ncc(-c3ccc(Cl)cc3)[nH]2)c1
3. Cc1ccc(NC(=O)CSc2ncc(-c3ccccc3)[nH]2)cc1
4. O=C(CSc1nc2ncccc2o1)Nc1cccc(C(F)(F)F)c1

Out:
1: 42; 2: 39; 3: 51; 4: -1
